Measurement notes: qHTS RealTime-Glo MT Cell Viability Assay in HepG2 cells - 16 hour (AID 1224885); note: nearly all actives have a fitted effect of over 50% in size
Condition details: RealTime-Glo luminescence; series mostly up to 76.8 µM
Description: U.S. Tox21 Program National Center for Advancing Translational Sciences [NCATS] NIH Chemical Genomics Center [NCGC] U.S. Environmental Protection Agency [EPA] National Institutes of Environmental Health Sciences [NIEHS] National Toxicology Program [NTP] U.S. Food and Drug Administration [FDA] Tox21 Assay Overview: Measure of cell viability is critical in the cell-base assay. Analysis of cell viability is necessary for the characterization of cell responses to cytotoxic drugs and environmental stress. […]
Records with an inconclusive call do not appear. Active and inactive are the calls of the source. Calls come from the whole dose curve; as a rule, active = well fitted cell-killing curve with a large enough effect in the repeat runs; inconclusive = weak or mixed curves; inactive = flat fitted curve, though single readings scatter.
Pick from label 1 = active, label 0 = inactive when you respond.

Here's what some known entries look like.
input: Recorded call for CCCCCC[C@@H](O)C/C=C\CCCCCCCC(=O)OCC(O)CO (stereo partly drawn) ?
output: label 0

input: Recorded call for `Cc1cc(C)c(N)cc1C` ?
output: label 0

input: Recorded call for `C=COCC(C)C` ?
output: label 0

input: Recorded call for `CO[C@]1(NC(=O)CSC(F)F)C(=O)N2C(C(=O)O)=C(CSc3nnnn3CCO)CO[C@H]21` ?
output: label 0

New cases:
input: Recorded call for C=CC(C)(CCC=C(C)C)OC(=O)CC(C)C (stereo not drawn) ?
output: label 0

input: Recorded call for `Cc1[nH]cnc1CN1CCc2c(c3ccccc3n2C)C1=O` ?
output: label 0

input: Recorded call for `CCOC(=O)c1ccc(C#Cc2ccc3c(c2)C(C)(C)CCS3)nc1` ?
output: label 0

input: Recorded call for `COc1cc(C(=O)NC2CCN(C)CC2)ccc1Nc1ncc2c(n1)N(C1CCCC1)CC(F)(F)C(=O)N2C` ?
output: label 1

input: Recorded call for `O=c1[nH]c2ccc(Cl)cc2o1` ?
output: label 0

input: Recorded call for `CCN(CC)CCNC(=O)COc1ccc(OC)cc1` ?
output: label 0

input: Recorded call for `Oc1c(I)cc(I)c2cccnc12` ?
output: label 0

input: Recorded call for `CCOC(=O)c1ccc(OCCN2C[C@H](O)[C@@H](O)[C@H](O)[C@H]2CO)cc1` ?
output: label 0

input: Recorded call for `CC(C)(O)c1ccc(CNC(=O)c2cccnc2Oc2ccc3nonc3c2)cc1` ?
output: label 0
